Target: oxytocin receptors (Rattus norvegicus)
Construct: The uteri are dissected out, cleaned of fat and connective tissues; from tissue; host or cells: uterus of DES-treated female Sprague-Dawley rats
Sequence (P70536 1-388): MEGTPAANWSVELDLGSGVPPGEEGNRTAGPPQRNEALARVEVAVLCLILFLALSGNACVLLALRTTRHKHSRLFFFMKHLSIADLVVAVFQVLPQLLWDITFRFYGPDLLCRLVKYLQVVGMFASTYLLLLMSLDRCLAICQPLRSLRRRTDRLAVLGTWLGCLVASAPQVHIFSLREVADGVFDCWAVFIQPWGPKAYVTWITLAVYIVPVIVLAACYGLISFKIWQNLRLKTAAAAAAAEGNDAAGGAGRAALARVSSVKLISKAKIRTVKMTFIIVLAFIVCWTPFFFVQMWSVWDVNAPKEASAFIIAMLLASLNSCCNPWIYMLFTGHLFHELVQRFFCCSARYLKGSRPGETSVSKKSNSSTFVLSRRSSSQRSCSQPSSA
Assay: Oxytocin Receptor Binding
Design: species or system Sprague-Dawley rat
Settings: 1.0 nM [^3 H]OT, 60 min., 22° C.
Measurement label: IC50 (nM)
Answers are plain numbers, in nM.

// worked examples, IC50 included
molecule="O=C(Nc1ccc(C(=O)N2CCc3cn[nH]c3-c3ncccc32)cc1)c1ccccc1-c1ccccc1 [Example 365]" measurement_label=IC50 value=2500
molecule="Cn1cc2c(n1)-c1sccc1N(C(=O)c1ccc(NC(=O)C3CCCCC3)cc1)CC2 [Example 6]" measurement_label=IC50 value=1700

Now turn to the next molecule.
Prompt line: # return recorded IC50 for entry Cc1ccccc1C(=O)Nc1ccc(C(=O)N2CCc3cn(C)nc3-c3sccc32)cc1 [Example 361]
Response line: 6400
